System: PIP tumor and PC3 tumor
Assay: Biodistribution of 125I labeled compounds 17, 18, 26 and 27 in tumor bearing nude mice
Type: in vivo
Details: 1 h
// reported Biodistribution: Pancreas for each item listed
Please state the figure in % ID/g; there is no need to write the unit.

compound	measurement name	endpoint unit	obs value
O=C(O)CC[C@H](NC(=O)N[C@@H](CCCCNC(=O)[C@H](Cc1ccccc1)NC(=O)[C@H](CCC(=O)O)NC(=O)[C@H](CCC(=O)O)NC(=O)c1ccc([125I])cc1)C(=O)O)C(=O)O [[^125I]18]	Biodistribution: Pancreas	% ID/g	1.66

What Biodistribution: Pancreas value was documented for this compound, O=C(O)CC[C@H](NC(=O)N[C@@H](CCCCNC(=O)[C@H](Cc1ccccc1)NC(=O)COc1ccc(C[C@H](NC(=O)[C@H](CCC(=O)O)NC(=O)c2ccc([125I])cc2)C(=O)O)cc1)C(=O)O)C(=O)O [[^125I]26] ?
0.98

What measured Biodistribution: Pancreas goes with O=C(O)CC[C@H](NC(=O)N[C@@H](CCCCNC(=O)[C@H](Cc1ccccc1)NC(=O)[C@H](CCC(=O)O)NC(=O)c1ccc([125I])cc1)C(=O)O)C(=O)O [[^125I]17] ?
0.55

Consider the compound O=C(O)CC[C@H](NC(=O)N[C@@H](CCCCNC(=O)[C@H](Cc1ccccc1)NC(=O)COc1ccc(C[C@H](NC(=O)[C@H](CCC(=O)O)NC(=O)[C@H](CCC(=O)O)NC(=O)c2ccc([125I])cc2)C(=O)O)cc1)C(=O)O)C(=O)O [[^125I]27] and give its measured Biodistribution: Pancreas.
1.32

----------
Test system: PIP tumor and PC3 tumor
Test: Biodistribution of 125I labeled compounds 17, 18, 26 and 27 in tumor bearing nude mice
Assay type: in vivo
Conditions: 1 h
Reported Biodistribution: Skin values follow for various molecules
Numbers only here, please. The scale is % ID/g.

molecule	experimental system	measurement name	obs value
O=C(O)CC[C@H](NC(=O)N[C@@H](CCCCNC(=O)[C@H](Cc1ccccc1)NC(=O)COc1ccc(C[C@H](NC(=O)[C@H](CCC(=O)O)NC(=O)[C@H](CCC(=O)O)NC(=O)c2ccc([125I])cc2)C(=O)O)cc1)C(=O)O)C(=O)O [[^125I]27]	PIP tumor and PC3 tumor	Biodistribution: Skin	2.68

Form field - read-out: Biodistribution: Skin; system: PIP tumor and PC3 tumor; submitted item: O=C(O)CC[C@H](NC(=O)N[C@@H](CCCCNC(=O)[C@H](Cc1ccccc1)NC(=O)[C@H](CCC(=O)O)NC(=O)[C@H](CCC(=O)O)NC(=O)c1ccc([125I])cc1)C(=O)O)C(=O)O [[^125I]18]
1.48

# value lookup — system PIP tumor and PC3 tumor, readout Biodistribution: Skin, item O=C(O)CC[C@H](NC(=O)N[C@@H](CCCCNC(=O)[C@H](Cc1ccccc1)NC(=O)[C@H](CCC(=O)O)NC(=O)c1ccc([125I])cc1)C(=O)O)C(=O)O [[^125I]17]
0.57

API: value(readout=Biodistribution: Skin, system=PIP tumor and PC3 tumor) for record O=C(O)CC[C@H](NC(=O)N[C@@H](CCCCNC(=O)[C@H](Cc1ccccc1)NC(=O)COc1ccc(C[C@H](NC(=O)[C@H](CCC(=O)O)NC(=O)c2ccc([125I])cc2)C(=O)O)cc1)C(=O)O)C(=O)O [[^125I]26]
2.33
